- Test system: 596521-263-R-J1-PDC complex spheroids, viability % of control;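 also: spheroids exposed to drugs for 7 days before viability reading; 100% = DMSO vehicle control viability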
- assay explanation: Anticancer human tumor 596521-263-R-J1-PDC patient-derived soft tissue sarcoma cell line growth inhibition [GQUAD]
- condition description: second compound 0.0316 µM; first compound 0.0316 µM; active compounds read low
endpoint label: viability, T/C (%)
Supply the numeric figure in %, leaving out any unit text.

COc1cccc2c1C(=O)c1c(O)c3c(c(O)c1C2=O)CC(O)(C(=O)CO)CC3OC1CC(N)C(O)C(C)O1 (stereo not given) + Cc1cnc(CNC(=O)c2c(=O)c3ccc(N4CCCN(C)CC4)nc3n3c2sc2ccccc23)cn1 ... 98.3
CC1COCCN1c1cc(C2(S(C)(=N)=O)CC2)nc(-c2ccnc3[nH]ccc23)n1 (stereo not given) + Cc1[nH]c2ccc(F)cc2c1-c1nc2c3cccnc3c3ncccc3c2[nH]1 ... 94.5
C#Cc1c(F)ccc2cc(O)cc(-c3ncc4c(N5CC6CCC(C5)N6)nc(OCC56CCCN5CC(F)C6)nc4c3F)c12 (stereo not given) + Cc1cnc(CNC(=O)c2c(=O)c3ccc(N4CCCN(C)CC4)nc3n3c2sc2ccccc23)cn1 ... 93.2
CC1COCCN1c1cc(C2(S(C)(=N)=O)CC2)nc(-c2ccnc3[nH]ccc23)n1 (stereo not given) + CN(C)c1ccc(Nc2c3ccc(NC(=O)CCN4CCCC4)cc3nc3cc(NC(=O)CCN4CCCC4)ccc23)cc1 ... 93.1
C=CC(=O)N1CCN(c2nc(=O)n(-c3c(C)ccnc3C(C)C)c3nc(-c4c(O)cccc4F)c(F)cc23)C(C)C1 (stereo not given) + CN(C)c1ccc(Nc2c3ccc(NC(=O)CCN4CCCC4)cc3nc3cc(NC(=O)CCN4CCCC4)ccc23)cc1 ... 114

Q. Given the molecule CCCS(=O)(=O)Nc1ccc(F)c(C(=O)c2c[nH]c3ncc(-c4ccc(Cl)cc4)cc23)c1F + Cc1cnc(CNC(=O)c2c(=O)c3ccc(N4CCCN(C)CC4)nc3n3c2sc2ccccc23)cn1 , what is its reported viability, T/C?
A. 100

Q. Form field: reported viability, T/C of C=CC(=O)N1CCN(c2nc(=O)n(-c3c(C)ccnc3C(C)C)c3nc(-c4c(O)cccc4F)c(F)cc23)C(C)C1 (stereo not given) + Cc1cnc(CNC(=O)c2c(=O)c3ccc(N4CCCN(C)CC4)nc3n3c2sc2ccccc23)cn1
A. 104
